Source of measurements: PubChem BioAssay AID1918931

Recorded measurements of IC50, one per entry
# Test system: 138582-337-R-J1-PDC complex spheroid viability;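 also: spheroids exposed to agents for 7 days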
# Assay remarks: Anticancer human tumor 138582-337-R-J1-PDC patient-derived Merkel cell tumor cell line growth inhibition
# Test settings: curve of first compound; second compound 3.16 µM

Examples from the recorded data:
- Molecule: "O=C(C=Cc1cccc(S(=O)(=O)Nc2ccccc2)c1)NO + NC1CCC(NC2CC2c2ccccc2)CC1"
  Tested system: "138582-337-R-J1-PDC complex spheroid viability"
  Result value: "483 nM"
- Molecule: "CCc1c2c(nc3ccc(O)cc13)-c1cc3c(c(=O)n1C2)COC(=O)[C@]3(O)CC + NC1CC1c1ccc(-c2cccc(O)c2)cc1"
  Tested system: "138582-337-R-J1-PDC complex spheroid viability"
  Result value: "4.01 nM"
- Molecule: "CC(C)CC(NC(=O)C(Cc1ccccc1)NC(=O)c1cnccn1)B(O)O (configuration not stated) + NC1CC1c1ccc(-c2cccc(O)c2)cc1"
  Tested system: "138582-337-R-J1-PDC complex spheroid viability"
  Result value: "0.37 nM"

Hello, I am looking for reported IC50 with 138582-337-R-J1-PDC complex spheroid viability for CC1COCCN1c1cc(-c2ccnn2C)c2ccnc(-c3ccn[nH]3)c2n1 (configuration not stated) + NC1CCC(NC2CC2c2ccccc2)CC1 . Could you help?
332 nM
